Target: human TLR7 (Homo sapiens)
Experiment: HEK293-Blue-hTLR-7 cells assay (SEAP reporter, R848 stimulation)
Conditions: HEK293-Blue-hTLR7 cells, R848, 20 hrs
Label 1 when IC50 < 20 nM; otherwise -1.

Worked examples, 8 compounds total:
C[C@@H]1CN(c2ccc(C(F)(F)F)c3ncccc23)C[C@H](C(=O)NC2CNCC(F)(F)C2)O1 (stereo partly shown) [Example 28]; -1
C[C@@H]1CN(c2ccc(C(F)(F)F)c3ncccc23)C[C@H](C(=O)NC2CC3CCCC(C2)N3)O1 (single isomer, unassigned) [Example 34A]; 1
C[C@H]1C[C@@H](N)CN(c2ccc(C(F)(F)F)c3ncccc23)C1 [Example 1]; 1
C[C@@H]1CN(c2ccc(C(F)(F)F)c3ncccc23)C[C@H](C(=O)N2CC(N)C2)O1 [Example 7]; -1
C[C@@H]1CN(c2ccc(C(F)(F)F)c3ncccc23)C[C@H](C(=O)N[C@H]2CNC[C@H]2F)O1 (single isomer, unassigned) [Example 2B]; 1
C[C@@H]1CN(c2ccc(C(F)(F)F)c3ncccc23)C[C@H](C(=O)NCC2COCCN2C)O1 (stereo partly shown) [Example 11]; -1
C[C@@H]1CN(c2ccc(C(F)(F)F)c3ncccc23)C[C@H](C(=O)NC2CN(C)CC23CC3)O1 (stereo partly shown) [Example 9]; 1
C[C@@H]1CN(c2ccc(Cl)c3ncccc23)C[C@H](C(=O)NC2CCN(C)CC2)O1 [Example 24]; 1

### Prompt Does the reported IC50 of the following compound sit strictly below 20 nM? C[C@@H]1CN(c2ccc(C(F)(F)F)c3ncccc23)C[C@H](C(=O)NCC2CNCC2(F)F)O1 (stereo partly shown) [Example 29]
### Response -1

### Prompt Does the reported IC50 of the following compound sit strictly below 20 nM? C[C@@H]1CN(c2ccc(C(F)(F)F)c3ncccc23)C[C@H](C(=O)NCC2CN(C)CCO2)O1 (stereo partly shown) [Example 3]
### Response 1

### Prompt Does the reported IC50 of the following compound sit strictly below 20 nM? C[C@@H]1CN(c2ccc(C(F)(F)F)c3ncccc23)C[C@H](C(=O)NC2C3CNCC2COC3)O1 (single isomer, unassigned) [Example 46A]
### Response 1

### Prompt Does the reported IC50 of the following compound sit strictly below 20 nM? C[C@@H]1CN(c2ccc(C(F)(F)F)c3ncccc23)C[C@H](C(=O)NC[C@@H]2CC(F)(F)CN2)O1 [Example 30]
### Response -1

### Prompt Does the reported IC50 of the following compound sit strictly below 20 nM? C[C@@H]1CN(c2ccc(C(F)(F)F)c3ncccc23)C[C@H](C(=O)NC2CC3CCC(C2)N3)O1 (single isomer, unassigned) [Example 47A]
### Response 1

----------
# pIC50 per entry
Biological target: human TLR7 (Homo sapiens, UniProt Q9NYK1)
Sequence (Q9NYK1 27-1049): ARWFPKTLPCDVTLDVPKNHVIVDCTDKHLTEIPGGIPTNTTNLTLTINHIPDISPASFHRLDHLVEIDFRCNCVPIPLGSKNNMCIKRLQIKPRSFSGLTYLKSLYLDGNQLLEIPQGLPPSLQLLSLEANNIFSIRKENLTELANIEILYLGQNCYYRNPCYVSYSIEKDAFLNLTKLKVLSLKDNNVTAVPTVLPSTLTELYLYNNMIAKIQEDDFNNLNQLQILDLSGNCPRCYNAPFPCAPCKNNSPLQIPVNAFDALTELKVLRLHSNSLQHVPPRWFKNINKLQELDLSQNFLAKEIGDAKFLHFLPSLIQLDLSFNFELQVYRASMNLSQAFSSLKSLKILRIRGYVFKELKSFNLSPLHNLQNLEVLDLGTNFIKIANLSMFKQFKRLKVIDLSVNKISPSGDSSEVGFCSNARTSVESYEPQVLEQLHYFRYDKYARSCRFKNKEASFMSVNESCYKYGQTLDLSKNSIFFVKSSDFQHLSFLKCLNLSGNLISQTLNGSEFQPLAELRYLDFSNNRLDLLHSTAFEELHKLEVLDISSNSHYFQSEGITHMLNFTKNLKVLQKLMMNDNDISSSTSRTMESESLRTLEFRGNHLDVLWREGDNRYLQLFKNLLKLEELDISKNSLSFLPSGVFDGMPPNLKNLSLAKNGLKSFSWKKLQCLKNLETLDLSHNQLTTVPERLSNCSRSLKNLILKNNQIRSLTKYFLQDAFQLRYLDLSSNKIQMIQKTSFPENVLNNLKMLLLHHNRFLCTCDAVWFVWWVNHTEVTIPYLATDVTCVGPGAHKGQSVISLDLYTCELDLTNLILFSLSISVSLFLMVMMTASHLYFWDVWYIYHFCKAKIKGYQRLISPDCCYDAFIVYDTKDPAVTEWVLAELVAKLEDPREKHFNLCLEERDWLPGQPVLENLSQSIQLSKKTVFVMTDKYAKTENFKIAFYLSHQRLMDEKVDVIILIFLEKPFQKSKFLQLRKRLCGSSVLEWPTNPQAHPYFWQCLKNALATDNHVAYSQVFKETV
Assay: HEK293-Blue-hTLR-7 cells assay (SEAP reporter, R848 stimulation)
Conditions: HEK293-Blue-hTLR7 cells, R848, 20 hrs
Answer as the number alone; pIC50 is minus log10 of concentration in mol/L.

# example entries with known answers
C[C@@H]1CN(c2ccc(Br)c3ncccc23)C[C@H](C(=O)NC2CCN(C)CC2)O1; 8.30
C[C@@H]1CN(c2ccc(Cl)c3ncccc23)C[C@H](C(=O)N[C@H]2CNC[C@H]2F)O1; 7.41
C[C@@H]1CN(c2ccc([N+](=O)[O-])c3ncccc23)C[C@H](C(=O)N[C@@H]2CNC[C@@H]2F)O1; 7.85
C[C@@H]1CN(c2ccc(C(F)(F)F)c3ncccc23)C[C@H](C(=O)NCC2CNCCO2)O1 (stereo partly shown); 8.40
Cc1ccc(N2C[C@@H](C)O[C@@H](C(=O)NC3CCN(C)CC3)C2)c2cccnc12; 7.13
CC(NC(=O)[C@H]1CN(c2ccc(C(F)(F)F)c3ncccc23)C[C@@H](C)O1)C1CN(C)CCO1 (single isomer, unassigned) [Example 35B]; 7.19

### Prompt Recall and state the measured pIC50 for C[C@@H]1CN(c2ccc(C(F)(F)F)c3ncccc23)C[C@H](C(=O)NCC(C)(C)N)O1 .
### Response 7.51

----------
Target: CYP2C9 (Homo sapiens)
Construct: tissue BD-Gentest 452117; host or cells: human liver microsomes
Sequence (P11712 whole entry): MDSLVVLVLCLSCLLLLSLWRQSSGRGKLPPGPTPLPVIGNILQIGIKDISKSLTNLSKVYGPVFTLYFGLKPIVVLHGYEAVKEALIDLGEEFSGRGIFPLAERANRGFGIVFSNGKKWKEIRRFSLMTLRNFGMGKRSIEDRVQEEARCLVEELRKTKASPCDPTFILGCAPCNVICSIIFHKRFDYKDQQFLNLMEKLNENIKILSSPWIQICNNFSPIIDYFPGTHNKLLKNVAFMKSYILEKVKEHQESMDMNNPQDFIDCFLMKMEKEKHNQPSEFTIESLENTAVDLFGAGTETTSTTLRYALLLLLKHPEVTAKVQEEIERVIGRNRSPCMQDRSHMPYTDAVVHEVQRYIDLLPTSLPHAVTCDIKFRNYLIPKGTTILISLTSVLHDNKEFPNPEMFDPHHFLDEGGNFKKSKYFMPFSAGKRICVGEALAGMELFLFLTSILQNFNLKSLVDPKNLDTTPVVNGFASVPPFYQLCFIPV
Assay: CYP inhibition assay in human liver microsome, CYP2C9
Assay type: in vitro ADME
Conditions: human, liver microsomes, probe diclofenac, HLM, diclofenac substrate, read-out: CYP inhibition % @10 uM (2C9)
Observation Type: inhibition at 5 min, 10 µM

# example entries with known answers
C[C@@H]1CN(c2ccc(C(F)(F)F)c3ncccc23)C[C@H](C(=O)NC[C@@H]2C[C@@H](F)CN2)O1; -8%
C[C@@H]1CN(c2ccc(C(F)(F)F)c3ncccc23)C[C@H](C(=O)NC[C@@H]2CC(F)(F)CN2)O1; 20%
C[C@@H]1CN(c2ccc(Cl)c3ncccc23)C[C@H](C(=O)NC2CCN(C)CC2)O1; -20%

### Prompt Recall and state the measured inhibition at 5 min, 10 µM for C[C@@H]1CN(c2ccc(Cl)c3ncccc23)C[C@H](C(=O)NCC2CN(C)CCO2)O1 (stereo partly shown) .
### Response -13%

### Prompt Recall and state the measured inhibition at 5 min, 10 µM for C[C@@H]1CN(c2ccc([N+](=O)[O-])c3ncccc23)C[C@H](C(=O)NCC2CN(C)CCO2)O1 (stereo partly shown) .
### Response -4%

### Prompt Recall and state the measured inhibition at 5 min, 10 µM for C[C@@H]1CN(c2ccc(C(F)(F)F)c3ncccc23)C[C@H](C(=O)NCC(C)(C)N)O1 .
### Response -13%

### Prompt Recall and state the measured inhibition at 5 min, 10 µM for C[C@@H]1CN(c2ccc(C(F)(F)F)c3ncccc23)C[C@H](C(=O)N2CCC(N)C2)O1 (stereo partly shown) .
### Response 11%

### Prompt Recall and state the measured inhibition at 5 min, 10 µM for C[C@@H]1CN(c2ccc(C(F)(F)F)c3ncccc23)C[C@H](C(=O)N2CCC(N)CC2)O1 .
### Response 12%

### Prompt Recall and state the measured inhibition at 5 min, 10 µM for C[C@@H]1CN(c2ccc(C(F)(F)F)c3ncccc23)C[C@H](C(=O)NCC2COCCN2C)O1 (stereo partly shown) .
### Response -4%

### Prompt Recall and state the measured inhibition at 5 min, 10 µM for Cc1ccc(N2C[C@@H](C)C[C@@H](N)C2)c2cccnc12 .
### Response -17%

### Prompt Recall and state the measured inhibition at 5 min, 10 µM for C[C@@H]1CN(c2ccc(C(F)(F)F)c3ncccc23)C[C@H](C(=O)NC2CC3CNCC(C3)C2)O1 (stereo partly shown) .
### Response 4%

### Prompt Recall and state the measured inhibition at 5 min, 10 µM for C[C@@H]1CN(c2ccc(I)c3ncccc23)C[C@H](C(=O)NC2CCN(C)CC2)O1 .
### Response -3%

### Prompt Recall and state the measured inhibition at 5 min, 10 µM for C[C@@H]1CN(c2ccc(C(F)(F)F)c3ncccc23)C[C@H](C(=O)NC2CN(C)CC23CC3)O1 (stereo partly shown) .
### Response 2%

The measured values listed here are drawn from patent US20220363665A1.
